- Tested on: WPMY1-GM130-SQSTM1
- assay-remarks: phenotypically active (imaging signature differs from DMSO and reproducible) at any of 0.3-9 uM (binary (1 = active, 0 = inactive)); higher = active
- study-conditions: treatment time: 24 h
measurement-type: phenotypically active
Lab note: record just the number, no unit beside it.

INSERT INTO assay_data (compound, measurement_type, observed_result) VALUES
  ('CC(C)(C)c1cc(C(=O)/C=C/c2ccc(C(=O)O)cc2)cc(C(C)(C)C)c1', 'phenotypically active', 1),
  ('CC#CC(=O)N1CCC[C@H]1c1nc(-c2ccc(C(=O)Nc3ccccn3)cc2)c2c(N)nccn12', 'phenotypically active', 0),
  ('N#Cc1ccc2ncnc(NCCc3ccccc3)c2c1', 'phenotypically active', 0),
  ('O=C(Nc1c[nH]nc1-c1nc2cc(CN3CCOCC3)ccc2[nH]1)NC1CC1', 'phenotypically active', 1),
  ('CCOc1cc([C@@H](CS(C)(=O)=O)N2C(=O)c3cccc(NC(C)=O)c3C2=O)ccc1OC', 'phenotypically active', 0),
  ('O=C(Nc1ccccc1)N1CCC(Cc2cnc3ccccc3c2)CC1', 'phenotypically active', 0),
  ('CC1CCC(C(C)C)C(O)C1 (stereo not given)', 'phenotypically active', 0),
  ('OC(CCN1CCCCC1)(c1ccccc1)C1CCCCC1 (stereo not given)', 'phenotypically active', 0),
  ('Cc1ccc(Cl)c(Nc2ccccc2C(=O)O)c1Cl', 'phenotypically active', 0);

Let's switch to this compound now.
# returns recorded phenotypically active (system: WPMY1-GM130-SQSTM1) for NC(=O)[C@@H](CCC(F)(F)F)N(Cc1ccc(-c2ncon2)cc1F)S(=O)(=O)c1ccc(Cl)cc1 0

* * *

- Tested on: HepG2-CANX-COX4
- assay-remarks: phenotypically active (imaging signature differs from DMSO and reproducible) at any of 0.3-9 uM (binary (1 = active, 0 = inactive)); higher = active
- study-conditions: treatment time: 24 h
Counter-ions that a name gives are not always drawn.
Your answer must be one of the following: 1.0 for active, 0.0 for inactive

INSERT INTO measurements (molecule, category) VALUES
  ('Cc1cc(Nc2ncc3c(n2)N(C)C(=O)N(c2cc(NC(=O)c4cccc(C(F)(F)F)c4)ccc2C)C3)n(C)n1', 1.0),
  ('Cc1ccc(S(=O)(=O)c2ccc([N+](=O)[O-])o2)cc1', 0.0),
  ('N#CC[C@@H](C1CCCC1)n1cc(-c2ncnc3[nH]ccc23)cn1 [ruxolitinib-(S)]', 1.0);

Given NCCCCNS(=O)(=O)c1ccc2c(Cl)cccc2c1 [W-13 hydrochloride] , state the outcome it received in this test. 0.0

Continue with Nc1nnc(-c2cccc(Cl)c2Cl)c(N)n1 0.0

Same lookup for CC(=O)O[C@H]1C[C@@H]2CC[C@@H]3[C@H](CC[C@@]4(C)[C@H]3C[C@H]([N+]3(C)CCCCC3)[C@@H]4OC(C)=O)[C@@]2(C)C[C@@H]1N1CCCCC1 , please. 0.0

Note, next up: CCN(CC)CCNC(=O)c1cc(Cl)c(N)cc1OC [metoclopramide] 0.0

Then what about the molecule C#Cc1cccc(Nc2ncnc3cc(OCCOC)c(OCCOC)cc23)c1 ? 1.0

* * *

- Test system: HepG2-TUBA1B-RELA
- assay-remarks: phenotypically active (imaging signature differs from DMSO and reproducible) at any of 0.3-9 uM (binary (1 = active, 0 = inactive)); higher = active
- study-conditions: treatment time: 24 h
Below: a set of entries, each annotated with reported phenotypically active.
Please reply with the number alone, leaving off any unit.

Give the measured phenotypically active of CCCCC1=NC2(CCCC2)C(=O)N1Cc1ccc(-c2ccccc2-c2nnn[nH]2)cc1 . 0

* * *

Parameter: phenotypically active. Scope: all listed entries.
- Tested on: HepG2-CANX-COX4
- assay-remarks: phenotypically active (imaging signature differs from DMSO and reproducible) at any of 0.3-9 uM (binary (1 = active, 0 = inactive)); higher = active
- study-conditions: treatment time: 24 h
Structures can show the parent of a compound that is named as a salt.
In your answer, state the number alone without any accompanying words.

As a guide, the following entries are already answered.
INSERT INTO assay_data (compound, observed_result) VALUES
  ('O=C(CCCCCN1C(=O)c2cccc3cccc(c23)C1=O)NO', 1),
  ('NC[C@H](O)c1ccc(O)c(O)c1 [norepinephrine]', 0),
  ('C[C@H](CS)C(=O)N1CCC[C@H]1C(=O)O', 0),
  ('Nc1c2c(nc3ccccc13)CCCC2', 0),
  ('O=C(O)COc1ccc(Br)cc1/C=C1\SC(=S)N(Cc2cccnc2)C1=O', 0);

Please give the measured phenotypically active for this compound: CCCCCCCCCCCCCCCC[n+]1ccn(Cc2ccccc2)c1C 1

Same lookup for Cc1ccc(C(=O)Oc2ccc(C(O)CNC(C)(C)C)cc2OC(=O)c2ccc(C)cc2)cc1 (stereo not drawn) , please. 0

Same question, N#C/C(=C/c1ccc(-c2cc(Cl)ccc2Cl)o1)C(=O)Nc1cccc2ncccc12 this time 0

And what about the compound O=C1c2c(O)ccc(O)c2C(=O)c2c(NCCNCCO)ccc(NCCNCCO)c21 ? 1

Follow-up item: COc1ccc([C@H]2CNC(=O)C2)cc1OC1CCCC1 [(S)-(+)-Rolipram] 0

Consider next the compound COc1cc2c(cc1OC)-c1c/c(=N/c3c(C)cc(C)cc3C)n(C)c(=O)n1CC2 [Trequinsin hydrochloride] in the same way. 1

And what about the compound O=C1Cc2c([nH]c3ccc(Br)cc23)-c2ccccc2N1 ? 1

// next record CCOC(=O)c1ccc(N2NC(=O)/C(=C/c3ccc([N+](=O)[O-])o3)C2=O)cc1 0

CC/C(=C(/c1ccccc1)c1ccc(OCCN(C)C)cc1)c1ccccc1 , same question. 0

Another compound to look at: CNS(=O)(=O)CCc1ccc2[nH]cc(C3CCN(C)CC3)c2c1 0

Would you kindly repeat that for NC(=O)c1sc2c([N+](=O)[O-])cc(C(F)(F)F)cc2[n+]1[O-] ? 0

* * *

- System: WPMY1-TUBA1B-RELA
- assay-remarks: phenotypically active (imaging signature differs from DMSO and reproducible) at any of 0.3-9 uM (binary (1 = active, 0 = inactive)); higher = active
- study-conditions: treatment time: 24 h
Where a name gives a salt, the structure may show the parent alone.
// one of Yes for active, No for inactive, no free text

Here's what some known entries look like.
INSERT INTO assay_data (molecule, category) VALUES
  ('CC(C)(N)c1cc(C(=O)N[C@@H]2CCc3ccc(OC4=C5CCC(=O)N=C5NC=C4)cc3C2)cc(C(F)(F)F)c1 [ML 786 dihydrochloride]', 'Yes'),
  ('COc1ccc(C[C@H](N)C(=O)N[C@H]2[C@@H](O)[C@H](n3cnc4c(N(C)C)ncnc43)O[C@@H]2CO)cc1 [Puromycin dihydrochloride]', 'Yes'),
  ('CC(C)[C@@H](C)/C=C/[C@@H](C)[C@H]1CC[C@H]2C3=CC=C4C[C@@H](O)CC[C@]4(C)[C@H]3CC[C@]12C', 'No');

Attention now shifts to the item below.
Dear colleague, could you share the recorded outcome for CC[C@H](CO)Nc1nc(NCc2ccc(-c3ccccn3)cc2)c2ncn(C(C)C)c2n1 when you have a moment? Yes

* * *

- Test system: WPMY1-GM130-SQSTM1
- assay-remarks: phenotypically active (imaging signature differs from DMSO and reproducible) at any of 0.3-9 uM (binary (1 = active, 0 = inactive)); higher = active
- study-conditions: treatment time: 24 h
Counter-ions that a name gives are not always drawn.
measurement-type: phenotypically active
Please reply with the number alone, leaving off any unit.

Solved entries (count: 3):
INSERT INTO measurements (compound, observed_result) VALUES
  ('Clc1ccc(C2(c3ccc(-c4cn[nH]c4)cc3)CCNCC2)cc1', 1),
  ('Cc1cc2sc(NC(=O)Cc3ccccc3)nc2cc1Cl', 0),
  ('CCOC(=O)CCNc1cc(N2CCc3ccccc3CC2)nc(-c2cccnc2)n1', 0);

So what does the record say about phenotypically active for NCCCCNS(=O)(=O)c1ccc2c(Cl)cccc2c1 [W-13 hydrochloride] ? 1

Next up: O=C1NC(=O)/C(=C\c2cccc(C(F)(F)F)c2)S1 0

Try this compound too: Cc1ccccc1Sc1ccc(/C=C2/SC(=S)NC2=O)cc1[N+](=O)[O-] 0

* * *

Recorded phenotypically active values for a group of compounds are listed next.
- Test system: WPMY1-TP53BP1-CLTA
- assay-remarks: phenotypically active (imaging signature differs from DMSO and reproducible) at any of 0.3-9 uM (binary (1 = active, 0 = inactive)); higher = active
- study-conditions: treatment time: 24 h
Counter-ions that a name gives are not always drawn.
Returns: the value as a bare number; no unit string appended.

INSERT INTO results (compound, measurement_type, observed_result) VALUES
  ('COc1ccc2c(c1OC)C(=O)O[C@@H]2[C@H]1c2c(cc3c(c2OC)OCO3)CCN1C [Noscapine hydrochloride]', 'phenotypically active', 0),
  ('OC(CCN1CCCCC1)(c1ccccc1)C1CC2C=CC1C2 (stereo not drawn)', 'phenotypically active', 0),
  ('CC(c1cc2ccccc2s1)N(O)C(N)=O (stereo not drawn)', 'phenotypically active', 0),
  ('NC[C@H](O)c1ccc(O)c(O)c1 [norepinephrine]', 'phenotypically active', 0),
  ('CN(C)CC/C=C1\c2ccccc2COc2ccc(CC(=O)O)cc21', 'phenotypically active', 0),
  ('Cc1ccc(C(=O)Oc2ccc(C(O)CNC(C)(C)C)cc2OC(=O)c2ccc(C)cc2)cc1 (stereo not drawn)', 'phenotypically active', 0),
  ('CC(CN1c2ccccc2Sc2ccccc21)N(C)C (stereo not drawn)', 'phenotypically active', 1),
  ('CON(C)C(=O)N1N=C(c2cc(F)ccc2F)S[C@@]1(CCCN)c1ccccc1 [ARRY 520 trifluoroacetate]', 'phenotypically active', 1),
  ('Cc1ccc2nc(NCCN)c3ncc(C)n3c2c1', 'phenotypically active', 1),
  ('COc1ccc2cc1Oc1ccc(cc1)C[C@H]1c3cc(c(OC)cc3CCN1C)Oc1c(OC)c(OC)cc3c1[C@H](C2)N(C)CC3', 'phenotypically active', 1);

Report phenotypically active for Nc1c2c(nc3ccccc13)CCCC2 please. 0

Queued: CC1CCC(C(C)C)C(O)C1 (stereo not drawn) 0

Follow-up item: N#C/C(=C/c1ccc(O)c(O)c1)C(=O)NCCCCc1ccccc1 1

Try the compound CCOc1ccc2nc(S(N)(=O)=O)sc2c1 [ethoxzolamide] 0

Thanks! And N=C1NC(=O)/C(=C\c2ccc(O)cc2)S1 ? 0

Follow-up entry: CN1CCN([C@H]2CC[C@H](n3cc(-c4ccc(Oc5ccccc5)cc4)c4c(N)ncnc43)CC2)CC1 1

Reference for the values: the supplement of paper PMC7411054
